I'd appreciate it if you could supply log10(MIC) values for the items below.
System: Staphylococcus aureus
assayComment: Antibacterial activity against Staphylococcus aureus after 24 hrs by micro broth dilution method
Format: functional
Quick note: numbers are log10 of MIC, with µg/mL as the unit.

Some solved entries appear below for comparison.
OC(Cn1cncn1)(Cn1c2ccccc2c2cc(Br)ccc21)c1ccc(F)cc1F (configuration not stated)	1.51
Cc1ccc(C(O)(Cn2cncn2)Cn2c3ccc(Br)cc3c3cc(Br)ccc32)cc1 (configuration not stated)	2.41
CC(C)(C)c1ccc2c(c1)c1cc(C(C)(C)C)ccc1n2CC(O)(Cn1cncn1)c1ccc(F)cc1F (configuration not stated)	2.41
OC(Cn1cncn1)(Cn1c2ccc(Br)cc2c2cc(Br)ccc21)c1ccc(F)cc1F (configuration not stated)	1.81

Return reported log10(MIC) values for all items listed beneath this line.
1. OC(Cn1cncn1)(Cn1c2ccccc2c2cc(I)ccc21)c1ccc(F)cc1F (configuration not stated)
2. OC(Cn1cncn1)(Cn1c2ccccc2c2ccccc21)c1ccc(F)cc1F (configuration not stated)
3. OC(Cn1cncn1)(Cn1c2ccccc2c2ccc(Br)cc21)c1ccc(F)cc1F (configuration not stated)
4. OC(Cn1cncn1)(Cn1c2ccc(Br)cc2c2cc(Br)ccc21)c1ccc(Cl)cc1 (configuration not stated)
5. CCn1cc(C(=O)O)c(=O)c2cc(F)c(N3CCNCC3)cc21
6. OC(Cn1cncn1)(Cn1c2ccc(Br)cc2c2cc(Br)ccc21)c1ccc(Cl)c(Cl)c1 (configuration not stated)

Reply text:
2.11
1.81
1.81
1.51
0.30
1.81

Return reported log10(MIC) values for all items listed beneath this line.
1. OC(Cn1cncn1)(Cn1c2ccc(Br)cc2c2cc(Br)ccc21)c1ccc(F)cc1 (configuration not stated)
2. OC(Cn1cncn1)(Cn1ccc2ccccc21)c1ccc(F)cc1F (configuration not stated)

Reply text:
1.81
2.11

###

I'd appreciate it if you could supply MIC values for the items below.
System: Staphylococcus aureus
assayComment: Antibacterial activity against Staphylococcus aureus ATCC 25923 after 24 hrs by micro broth dilution method
Format: functional
studyConditions: ATCC 25923, 24 h
Give bare numbers, in µg/mL.

CCn1cc(C(=O)O)c(=O)c2cc(F)c(N3CCNCC3)cc21	1

Return reported MIC values for all items listed beneath this line.
1. OC(Cn1cncn1)(Cn1c2ccccc2c2cc(Br)ccc21)c1ccc(F)cc1F (configuration not stated)
2. OC(Cn1cncn1)(Cn1c2ccccc2c2ccccc21)c1ccc(F)cc1F (configuration not stated)
3. OC(Cn1cncn1)(Cn1c2ccccc2c2cc(I)ccc21)c1ccc(F)cc1F (configuration not stated)
4. OC(Cn1cncn1)(Cn1ccc2ccccc21)c1ccc(F)cc1F (configuration not stated)

Reply text:
[16, 32, 16, 32]

###

I'd appreciate it if you could supply MFC values for the items below.
Test system: Candida parapsilosis
assayComment: Fungicidal activity against Candida parapsilosis ATCC 22019 incubated for 24 hrs followed by plating onto tryptic soy agar medium and measured after 24 hrs by broth microdilution method
Assay type: functional
studyConditions: Lodderomyces parapsilosis, ATCC 22019, 24 h
Give bare numbers, in mg/L.

Some solved entries appear below for comparison.
OC(Cn1cncn1)(Cn1c2ccc(Br)cc2c2cc(Br)ccc21)c1ccc(Cl)c(Cl)c1 (stereo unspecified)	32
OC(Cn1cncn1)(Cn1c2ccc(Br)cc2c2cc(Br)ccc21)c1ccc(F)cc1F (stereo unspecified)	4
OC(Cn1cncn1)(Cn1c2ccccc2c2cc(Br)ccc21)c1ccc(F)cc1F (stereo unspecified)	8
OC(Cn1cncn1)(Cn1c2ccccc2c2ccc(Br)cc21)c1ccc(F)cc1F (stereo unspecified)	32
OC(Cn1cncn1)(Cn1c2ccccc2c2ccccc21)c1ccc(F)cc1F (stereo unspecified)	32

Read the next record carefully.
Field MFC (entry OC(Cn1cncn1)(Cn1c2ccc(Br)cc2c2cc(Br)ccc21)c1ccc(F)cc1 (stereo unspecified) ) reads 16

###

I'd appreciate it if you could supply MIC values for the items below.
Test system: Klebsiella pneumoniae
assayComment: Antibacterial activity against Klebsiella pneumoniae after 24 hrs by micro broth dilution method
Format: functional
Give bare numbers, in µg/mL.

Some solved entries appear below for comparison.
OC(Cn1cncn1)(Cn1ccc2ccccc21)c1ccc(F)cc1F (stereo not given)	128
OC(Cn1cncn1)(Cn1c2ccc(Br)cc2c2cc(Br)ccc21)c1ccc(Cl)cc1 (stereo not given)	256
OC(Cn1cncn1)(Cn1c2ccccc2c2cc(Br)ccc21)c1ccc(F)cc1F (stereo not given)	128
CCn1cc(C(=O)O)c(=O)c2cc(F)c(N3CCNCC3)cc21	4

Read the next record carefully.
Record CC(C)(C)c1ccc2c(c1)c1cc(C(C)(C)C)ccc1n2CC(O)(Cn1cncn1)c1ccc(F)cc1F (stereo not given) has Klebsiella pneumoniae MIC equal to 32

###

Tested on: Candida albicans
assayComment: Antifungal activity against Candida albicans after 24 hrs by two-fold broth microdilution assay
Assay type: functional
I'd appreciate it if you could supply log10 of MIC values for the items below.
Quick note: numbers are log10 of MIC, with µg/mL as the unit.

Some solved entries appear below for comparison.
OC(Cn1cncn1)(Cn1ccc2ccccc21)c1ccc(F)cc1F (configuration not stated)	1.51
OC(Cn1cncn1)(Cn1c2ccc(Br)cc2c2cc(Br)ccc21)c1ccc(F)cc1F (configuration not stated)	0.60
OC(Cn1cncn1)(Cn1cncn1)c1ccc(F)cc1F	0.60
OC(Cn1cncn1)(Cn1c2ccc(Br)cc2c2cc(Br)ccc21)c1ccc(F)cc1 (configuration not stated)	0.90
OC(Cn1cncn1)(Cn1c2ccc(Br)cc2c2cc(Br)ccc21)c1ccc(Cl)cc1 (configuration not stated)	0.90
OC(Cn1cncn1)(Cn1c2ccccc2c2ccccc21)c1ccc(F)cc1F (configuration not stated)	1.51
CC(C)(C)c1ccc2c(c1)c1cc(C(C)(C)C)ccc1n2CC(O)(Cn1cncn1)c1ccc(F)cc1F (configuration not stated)	1.81
OC(Cn1cncn1)(Cn1c2ccc(Br)cc2c2cc(Br)ccc21)c1ccc(Cl)c(Cl)c1 (configuration not stated)	0.60

Return reported log10 of MIC values for all items listed beneath this line.
1. OC(Cn1cncn1)(Cn1c2ccccc2c2cc(I)ccc21)c1ccc(F)cc1F (configuration not stated)
2. OC(Cn1cncn1)(Cn1c2ccccc2c2ccc(Br)cc21)c1ccc(F)cc1F (configuration not stated)
3. Cc1ccc(C(O)(Cn2cncn2)Cn2c3ccc(Br)cc3c3cc(Br)ccc32)cc1 (configuration not stated)
4. OC(Cn1cncn1)(Cn1c2ccccc2c2cc(Br)ccc21)c1ccc(F)cc1F (configuration not stated)

Reply text:
1.20
1.20
1.81
0.90

###

System: Staphylococcus aureus
assayComment: Antibacterial activity against Staphylococcus aureus ATCC 29213 after 24 hrs by micro broth dilution method
Format: functional
studyConditions: ATCC 29213, 24 h
reportedProperty: MIC

Some solved entries appear below for comparison.
OC(Cn1cncn1)(Cn1c2ccc(Br)cc2c2cc(Br)ccc21)c1ccc(Cl)cc1 (configuration not stated)	16 µg/mL
OC(Cn1cncn1)(Cn1ccc2ccccc21)c1ccc(F)cc1F (configuration not stated)	64 µg/mL

Return reported MIC values for all items listed beneath this line.
1. CCn1cc(C(=O)O)c(=O)c2cc(F)c(N3CCNCC3)cc21
2. CC(C)(C)c1ccc2c(c1)c1cc(C(C)(C)C)ccc1n2CC(O)(Cn1cncn1)c1ccc(F)cc1F (configuration not stated)
3. OC(Cn1cncn1)(Cn1c2ccc(Br)cc2c2cc(Br)ccc21)c1ccc(Cl)c(Cl)c1 (configuration not stated)
4. OC(Cn1cncn1)(Cn1c2ccccc2c2ccc(Br)cc21)c1ccc(F)cc1F (configuration not stated)
5. OC(Cn1cncn1)(Cn1c2ccc(Br)cc2c2cc(Br)ccc21)c1ccc(F)cc1 (configuration not stated)
6. OC(Cn1cncn1)(Cn1c2ccccc2c2cc(I)ccc21)c1ccc(F)cc1F (configuration not stated)
7. OC(Cn1cncn1)(Cn1c2ccccc2c2ccccc21)c1ccc(F)cc1F (configuration not stated)

Reply text:
1: 8 µg/mL; 2: 256 µg/mL; 3: 32 µg/mL; 4: 32 µg/mL; 5: 16 µg/mL; 6: 16 µg/mL; 7: 32 µg/mL

Return reported MIC values for all items listed beneath this line.
1. OC(Cn1cncn1)(Cn1c2ccc(Br)cc2c2cc(Br)ccc21)c1ccc(F)cc1F (configuration not stated)
2. OC(Cn1cncn1)(Cn1c2ccccc2c2cc(Br)ccc21)c1ccc(F)cc1F (configuration not stated)
3. Cc1ccc(C(O)(Cn2cncn2)Cn2c3ccc(Br)cc3c3cc(Br)ccc32)cc1 (configuration not stated)

Reply text:
1. 16 µg/mL
2. 16 µg/mL
3. 256 µg/mL

###

I'd appreciate it if you could supply Ratio values for the items below.
System: Candida tropicalis
assayComment: Ratio of MFC to MIC for Candida tropicalis
Type: functional

Some solved entries appear below for comparison.
OC(Cn1cncn1)(Cn1c2ccccc2c2cc(Br)ccc21)c1ccc(F)cc1F (stereo unspecified)	8
OC(Cn1cncn1)(Cn1c2ccc(Br)cc2c2cc(Br)ccc21)c1ccc(F)cc1F (stereo unspecified)	2
OC(Cn1cncn1)(Cn1c2ccccc2c2ccccc21)c1ccc(F)cc1F (stereo unspecified)	2
OC(Cn1cncn1)(Cn1c2ccc(Br)cc2c2cc(Br)ccc21)c1ccc(F)cc1 (stereo unspecified)	2
OC(Cn1cncn1)(Cn1c2ccc(Br)cc2c2cc(Br)ccc21)c1ccc(Cl)c(Cl)c1 (stereo unspecified)	1

Read the next record carefully.
Field Ratio (entry OC(Cn1cncn1)(Cn1c2ccccc2c2ccc(Br)cc21)c1ccc(F)cc1F (stereo unspecified) ) reads 1
